Target entity: T1, recombinant human TNFR2-Fc protein (Sino Biological) (human, UniProt P20333 23-257, limits assumed)
T1 construct: bought; also called human TNFR2 protein; not shown: Fc part of the bought fusion protein; not described
T1 sequence (looked up): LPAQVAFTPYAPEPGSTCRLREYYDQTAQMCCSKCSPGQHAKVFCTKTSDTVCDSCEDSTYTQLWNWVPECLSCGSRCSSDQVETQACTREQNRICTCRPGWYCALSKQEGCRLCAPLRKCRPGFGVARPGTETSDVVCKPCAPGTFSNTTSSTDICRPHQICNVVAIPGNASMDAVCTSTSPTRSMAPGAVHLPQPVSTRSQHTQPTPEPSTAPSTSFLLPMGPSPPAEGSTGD
Experimental details: ELISA, coated TNFR2-Fc
Entries whose EC50 is below 0.3 nM take MET; entries at or above 0.3 nM take NOT MET.

Observe how each entry below is paired with its result.
| Binder | Group |
| --- | --- |
| 001-B05 (antibody, V domains shown, IgG) VH: EVQLLESGGGLVQPGGSLRLSCAASGFTFSNAWMSWVRQAPGKGLEWVSSISSASGYIYYGDSVKGRFTISRDNSKNTLYLQMNNLRAEDTAVYYCARGTLYGDFDEFWGQGTLVTVSS VL: QSVLTQPPSASGTPGQRVTISCSGSSSNIGNNAVNWYQQLPGTAPKLLIYGNTNRPSGVPDRFSGSKSGTSASLAISGLRSEDEADYYCQSYDSSLSGYVVFGGGTKLTVLG | MET |
| 001-F02 (antibody, V domains shown, IgG; In the MDSC assay tested as hIgG1, hIgG2 and N297Q) VH: EVQLLESGGGLVQPGGSLRLSCAASGFTFSDYYMSWVRQAPGKGLEWVANINTDGSEKYYLDSVKGRFTISRDNSKNTLYLQMNSLRAEDTAVYYCAREEYGAFDIWGQGTLVTVSS VL: QSVLTQPPSASGTPGQRVTISCSGSSSNIGSNTVNWYQQLPGTAPKLLIYDNNKRPSGVPDRFSGSKSGTSASLAISGLRSEDEADYYCQSFDRGLSGSIVFGGGTKLTVLG | NOT MET |
| 001-A09 (antibody, V domains shown, IgG) VH: EVQLLESGGGLVQPGGSLRLSCAASGFTFSSNYMSWVRQAPGKGLEWVSVISGSGGSTYYADSVKGRFTISRDNSKNTLYLQMNSLRAEDTAVYYCARDRGWFDPWGQGTLVTVSS VL: QSVLTQPPSASGTPGQRVTISCSGSRSNIDNSYVSWYQQLPGTAPKLLIYRNNQRPSGVPDRFSGSKSGTSASLAISGLRSEDEADYYCATWDDSLSGPVFGGGTKLTVLG | NOT MET |
| 001-E06 (antibody, V domains shown, IgG) VH: EVQLLESGGGLVQPGGSLRLSCAASGFTFSSNYMSWVRQAPGKGLEWVALIWYDGSNKYYADSVKGRFTISRDNSKNTLYLQMNSLRAEDTAVYYCAKDPLFDSWGQGTLVTVSS VL: QSVLTQPPSASGTPGQRVTISCTGRSSNIGAGYDVHWYQQLPGTAPKLLIYDNNKRPSGVPDRFSGSKSGTSASLAISGLRSEDEADYYCAAWDDSLNGPVFGGGTKLTVLG | MET |
| 001-B09 (antibody, V domains shown, IgG) VH: EVQLLESGGGLVQPGGSLRLSCAASGFTFSRHAMNWVRQAPGKGLEWVSSISTGSSYIDYADSVKGRFTISRDNSKNTLYLQMNSLRAEDTAVYYCAREKGHYYYGMDVWGQGTLVTVSS VL: QSVLTQPPSASGTPGQRVTISCTGSSSNIGAGYDVHWYQQLPGTAPKLLIYGNSYRPSGVPDRFSGSKSGTSASLAISGLRSEDEADYYCQSYDTSLSAYVVFGGGTKLTVLG | MET |

# input for lookup
Query: is_below(EC50, 0.3 nM) for 001-C05 (antibody, V domains shown, IgG) VH: EVQLLESGGGLVQPGGSLRLSCAASGFTFSSNEMSWIRQAPGKGLEWVSVIYSGGSTYYADSVKGRFTISRDNSKNTLYLQMNSLRAEDTAVYYCARREGWLVPFDYWGQGTLVTVSS VL: QSVLTQPPSASGTPGQRVTISCSGSSSNIGSNTVNWYQQLPGTAPKLLIYGNIIRPSGVPDRFSGSKSGTSASLAISGLRSEDEADYYCQSFDTTLSGSIVFGGGTKLTVLG ?
Response: NOT MET

These entries and their values trace back to patent US20220002426A1.
